Test system: mouse L 1210 leukemia
assay_remarks: L1210 leukemia in mice: inoculum of 10^5 cells, single dose of compound 24 hours later
Assay type: in vivo
reported_conditions: I.P., dose 0.01 of the sublethal dose, inoculum 10^5 L1210 cells
# Lookup of reported ILS (increased life span) % keyed by entry
measured_property: ILS (increased life span) % (%)

- compound: "CC[n+]1ccc2c(C)c3[nH]c4ccc(OC(C)=O)cc4c3c(C)c2c1 [9-acetoxy-2-ethyl-ellipticinium acetate]"
  reported_result: 134
- compound: "CC[n+]1ccc2c(C)c3[nH]c4ccc(O)cc4c3c(C)c2c1 [9-hydroxy-2-ethyl ellipticinium acetate, 9-hydroxy-2-ethyl-ellipticinium acetate]"
  reported_result: 122
- compound: "CCN(CC)CC[n+]1ccc2c(C)c3[nH]c4ccc(O)cc4c3c(C)c2c1"
  reported_result: 137
- compound: "Cc1c2cc[n+](CCN3CCCCC3)cc2c(C)c2c1[nH]c1ccc(O)cc12"
  reported_result: 124
- compound: "Cc1c2cc[n+](CCO)cc2c(C)c2c1[nH]c1ccc(O)cc12"
  reported_result: 115

---

reported_conditions: route not given
measured_property: LDo (highest non lethal dose / sublethal dose) for mice (mg/kg)

- compound: "CC(=O)Oc1ccc2c(c1)c1c(C)c3c[n+](C)ccc3c(C)c1n2C"
  unit_string: "mg/kg"
  reported_result: 50
- compound: "Cc1c2c[n+](C)ccc2c(C)c2c1c1cc(O)ccc1n2C"
  unit_string: "mg/kg"
  reported_result: 50
- compound: "Cc1c2ccncc2c(C)c2c1[nH]c1ccc(O)cc12 [Example 9-OH--E, 9-hydroxy-ellipticine, reference compound]"
  unit_string: "mg/kg"
  reported_result: 50
- compound: "Cc1c2cc[n+](C)cc2c(C)c2c1[nH]c1ccc(O)cc12 [9-hydroxy 2-methyl ellipticinium acetate, 9-hydroxy-2-methyl-ellipticinium acetate]"
  unit_string: "mg/kg"
  reported_result: 5

---

reported_conditions: mice, I.V.
# Lookup of reported DLo (I.V.) keyed by entry

- molecule: "Cc1c2cc[n+](CCN3CCCCC3)cc2c(C)c2c1[nH]c1ccc(O)cc12"
  DLo (I.V.) / mg/kg: 10
- molecule: "CCN(CC)CC[n+]1ccc2c(C)c3[nH]c4ccc(O)cc4c3c(C)c2c1"
  DLo (I.V.) / mg/kg: 5
- molecule: "Cc1c2cc[n+](CCO)cc2c(C)c2c1[nH]c1ccc(O)cc12"
  DLo (I.V.) / mg/kg: 20
- molecule: "CC[n+]1ccc2c(C)c3c(c(C)c2c1)c1cc(O)ccc1n3C"
  DLo (I.V.) / mg/kg: 5
- molecule: "CC[n+]1ccc2c(C)c3[nH]c4ccc(O)cc4c3c(C)c2c1 [9-hydroxy-2-ethyl ellipticinium acetate, 9-hydroxy-2-ethyl-ellipticinium acetate]"
  DLo (I.V.) / mg/kg: 15

---

System: mouse L 1210 leukemia
assay_remarks: L1210 leukemia in mice: inoculum of 10^5 cells, single dose of compound 24 hours later
Assay type: in vivo
reported_conditions: I.P., dose 0.1 of the sublethal dose, inoculum 10^5 L1210 cells
measured_property: ILS (increased life span) % (%)

- molecule: "CC[n+]1ccc2c(C)c3[nH]c4ccc(OC(C)=O)cc4c3c(C)c2c1 [9-acetoxy-2-ethyl-ellipticinium acetate]"
  unit_string: "%"
  reported_result: 157
- molecule: "CC[n+]1ccc2c(C)c3c(c(C)c2c1)c1cc(O)ccc1n3C"
  unit_string: "%"
  reported_result: 127
- molecule: "CC[n+]1ccc2c(C)c3[nH]c4ccc(O)cc4c3c(C)c2c1 [9-hydroxy-2-ethyl ellipticinium acetate, 9-hydroxy-2-ethyl-ellipticinium acetate]"
  unit_string: "%"
  reported_result: 175
- molecule: "CCN(CC)CC[n+]1ccc2c(C)c3[nH]c4ccc(O)cc4c3c(C)c2c1"
  unit_string: "%"
  reported_result: 173
- molecule: "Cc1c2cc[n+](CCN3CCCCC3)cc2c(C)c2c1[nH]c1ccc(O)cc12"
  unit_string: "%"
  reported_result: 181

---

Test system: mouse L 1210 leukemia
assay_remarks: L1210 leukemia in mice: inoculum of 10^5 cells, single dose of compound 24 hours later
Format: in vivo
reported_conditions: I.P., dose 0.02 of the sublethal dose, inoculum 10^5 L1210 cells
Excerpt: The experimental tumor mouse L 1210 leukemia is commonly used to evaluate the effects of all the antitumor compounds now used in human therapeutics,as was described, for example, by C. C. ZUBROD in Proc. Nat. Acad. Sci. USA 69, 1972, pp. 1042-1047. […] The mice were randomized in each experimental series. A first routine experiment enable the death rate by toxicity to be determined and thus established the sublethal doses. […]

- compound: "CC[n+]1ccc2c(C)c3[nH]c4ccc(OC(C)=O)cc4c3c(C)c2c1 [9-acetoxy-2-ethyl-ellipticinium acetate]"
  ILS (increased life span) % (%): 137
- compound: "CCN(CC)CC[n+]1ccc2c(C)c3[nH]c4ccc(O)cc4c3c(C)c2c1"
  ILS (increased life span) % (%): 139
- compound: "Cc1c2cc[n+](CCN3CCCCC3)cc2c(C)c2c1[nH]c1ccc(O)cc12"
  ILS (increased life span) % (%): 131
- compound: "CC[n+]1ccc2c(C)c3[nH]c4ccc(O)cc4c3c(C)c2c1 [9-hydroxy-2-ethyl ellipticinium acetate, 9-hydroxy-2-ethyl-ellipticinium acetate]"
  ILS (increased life span) % (%): 132

---

reported_conditions: mice, single i.p. injection
# Lookup of reported DLo (I.P.) keyed by entry

- compound: "CCN(CC)CC[n+]1ccc2c(C)c3[nH]c4ccc(O)cc4c3c(C)c2c1"
  unit_string: "mg/kg"
  DLo (I.P.): 50
- compound: "Cc1c2cc[n+](CCN3CCCCC3)cc2c(C)c2c1[nH]c1ccc(O)cc12"
  unit_string: "mg/kg"
  DLo (I.P.): 50
- compound: "Cc1c2cc[n+](CCO)cc2c(C)c2c1[nH]c1ccc(O)cc12"
  unit_string: "mg/kg"
  DLo (I.P.): 10
- compound: "CC[n+]1ccc2c(C)c3[nH]c4ccc(OC(C)=O)cc4c3c(C)c2c1 [9-acetoxy-2-ethyl-ellipticinium acetate]"
  unit_string: "mg/kg"
  DLo (I.P.): 50
- compound: "CC[n+]1ccc2c(C)c3c(c(C)c2c1)c1cc(O)ccc1n3C"
  unit_string: "mg/kg"
  DLo (I.P.): 50
- compound: "CC[n+]1ccc2c(C)c3[nH]c4ccc(O)cc4c3c(C)c2c1 [9-hydroxy-2-ethyl ellipticinium acetate, 9-hydroxy-2-ethyl-ellipticinium acetate]"
  unit_string: "mg/kg"
  DLo (I.P.): 50

---

Test system: mouse L 1210 leukemia
assay_remarks: L1210 leukemia in mice: inoculum of 10^5 cells, single dose of compound 24 hours later
Type: in vivo
reported_conditions: I.V., dose 1 (the sublethal dose), inoculum 10^5 L1210 cells

- molecule: "CCN(CC)CC[n+]1ccc2c(C)c3[nH]c4ccc(O)cc4c3c(C)c2c1"
  ILS (increased life span) %, %: 112
- molecule: "Cc1c2cc[n+](CCO)cc2c(C)c2c1[nH]c1ccc(O)cc12"
  ILS (increased life span) %, %: 146
- molecule: "CC[n+]1ccc2c(C)c3[nH]c4ccc(O)cc4c3c(C)c2c1 [9-hydroxy-2-ethyl ellipticinium acetate, 9-hydroxy-2-ethyl-ellipticinium acetate]"
  ILS (increased life span) %, %: 124
- molecule: "CC[n+]1ccc2c(C)c3c(c(C)c2c1)c1cc(O)ccc1n3C"
  ILS (increased life span) %, %: 115
